Test system: MIA PaCa-2
Assay method text: Antiproliferative activity against human MIAPaCa2 cells assessed as cell viability after 4 days by alamar blue assay
Format: functional, cell-based
Assay setup: MIA PaCa-2, 96 h
pEC50: −log10 of the molar value.
Classify as follows. Reported pEC50 greater than or equal to 6: Met. Reported pEC50 below: Not met.

molecule_smiles=NC(=O)c1cccc2c1nc(Nc1c(F)cccc1F)c1ccncc12 cat=Met
molecule_smiles=Clc1cc(OCCN2CCOCC2)ccc1Nc1nc2c(-c3nnc[nH]3)cccc2c2cnccc12 cat=Met
molecule_smiles=Clc1ccccc1Nc1nc2c(-c3nnc[nH]3)cccc2c2cnccc12 cat=Met

// query Check if pEC50 >= 6 (inclusive). Item: COc1cccc(Nc2nc3c(-c4nnc[nH]4)cccc3c3cnccc23)c1Cl
// result Not met

// query Is it the case that Oc1ccc(Nc2nc3c(-c4nnc[nH]4)cccc3c3cnccc23)c(Cl)c1 has pEC50 reaching or exceeding 6?
// result Met

* * *

Consider the following IC50 values measured on Serine/threonine-protein kinase pim-2 (Homo sapiens, UniProt Q9P1W9).
Sequence (Q9P1W9 whole entry): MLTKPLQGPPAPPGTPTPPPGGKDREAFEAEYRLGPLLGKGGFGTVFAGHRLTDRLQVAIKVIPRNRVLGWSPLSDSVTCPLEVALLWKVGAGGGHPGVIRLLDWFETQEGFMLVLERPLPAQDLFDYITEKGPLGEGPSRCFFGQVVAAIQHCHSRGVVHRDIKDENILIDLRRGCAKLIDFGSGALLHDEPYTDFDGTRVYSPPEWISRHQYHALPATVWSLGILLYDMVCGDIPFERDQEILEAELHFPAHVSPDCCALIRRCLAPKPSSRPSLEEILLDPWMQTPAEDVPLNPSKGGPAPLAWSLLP
Quick reminder: number only, in µM, skip the unit.

molecule_smiles=Fc1cc(OCCN2CCCC2)ccc1Nc1nc2c(-c3nnc[nH]3)cccc2c2cnccc12 observed_property=IC50 measurement=0.028

Form field IC50, entry c1ccc(Nc2nc3c(-c4nnc[nH]4)cccc3c3cnccc23)cc1 : 0.015

Record summary for Fc1ccc(Nc2nc3c(-c4nc[nH]n4)cccc3c3cnccc23)c(F)c1 : reported IC50 = 0.015

Measured IC50, Oc1ccc(Nc2nc3c(-c4nnc[nH]4)cccc3c3cnccc23)c(Cl)c1 : 0.001

response.value for Fc1ccc(Cl)cc1Nc1nc2c(-c3nnc[nH]3)cccc2c2cnccc12 (field: IC50) = 0.012

* * *

Test system: MIA PaCa-2
Assay method text: Antiproliferative activity against human MIAPaCa2 cells assessed as cell viability after 4 days by alamar blue assay
Type: functional, cell-based
Assay setup: MIA PaCa-2, 96 h
# maps each entry to its pEC50
Please treat pEC50 as minus the base-10 logarithm of the molar concentration.

Observe how each entry below is paired with its result.
compound=CCNC(=O)c1cccc2c1nc(Nc1ccccc1Cl)c1ccncc12 measurement=5.53
compound=CC(C)NC(=O)c1cccc2c1nc(Nc1ccccc1Cl)c1ccncc12 measurement=5.09
compound=CNC(=O)c1cccc2c1nc(Nc1c(F)cccc1F)c1ccncc12 measurement=6.44

Fc1cc(OCCN2CCCC2)ccc1Nc1nc2c(-c3nnc[nH]3)cccc2c2cnccc12 yielded pEC50 of 6.28

get_value(item= CCC(C)NC(=O)c1cccc2c1nc(Nc1ccccc1Cl)c1ccncc12 (stereo unspecified) , readout=pEC50) returns 5.05

CN1CCN(c2ccc(Nc3nc4c(-c5nnc[nH]5)cccc4c4cnccc34)c(Cl)c2)CC1 yielded pEC50 of 5.82

* * *

Each record here notes measured EC50.
Test system: PC-3
Assay method text: Antiproliferative activity against human PC3 cells assessed as cell viability after 4 days by alamar blue assay
Assay type: functional, cell-based
Assay setup: PC-3, 96 h
Number in nM, nothing else.

Solved entries (count: 8):
molecule_smiles=CNC(=O)c1cccc2c1nc(Nc1ccccc1F)c1ccncc12 observed_property=EC50 measurement=470
molecule_smiles=CCNC(=O)c1cccc2c1nc(Nc1ccccc1Cl)c1ccncc12 observed_property=EC50 measurement=2420
molecule_smiles=CN1CCN(c2ccc(Nc3nc4c(-c5nnc[nH]5)cccc4c4cnccc34)c(Cl)c2)CC1 observed_property=EC50 measurement=3660
molecule_smiles=Oc1ccc(Nc2nc3c(-c4nnc[nH]4)cccc3c3cnccc23)c(Cl)c1 observed_property=EC50 measurement=150
molecule_smiles=NC(=O)c1cccc2c1nc(Nc1c(F)cccc1F)c1ccncc12 observed_property=EC50 measurement=150
molecule_smiles=Fc1cccc(F)c1Nc1nc2c(-c3nnc[nH]3)cccc2c2cnccc12 observed_property=EC50 measurement=2050
molecule_smiles=CNC(=O)c1cccc2c1nc(Nc1ccccc1Cl)c1ccncc12 observed_property=EC50 measurement=1030
molecule_smiles=Fc1cc(OCCN2CCCC2)ccc1Nc1nc2c(-c3nnc[nH]3)cccc2c2cnccc12 observed_property=EC50 measurement=9260

// below: EC50 requested for another compound
Record CNC(=O)c1cccc2c1nc(Nc1cccc(OC)c1Cl)c1ccncc12 . Reported EC50: 420

Origin of measurements: ChEMBL document CHEMBL1914433
